biological target: BRD4 (BDI_K57-E168) (Homo sapiens (Human)); assay: TR-FRET bromodomain binding assay, BRD4 first bromodomain; conditions: His-tagged BD1, Alexa647-labeled probe 100 nM
readoutType: Ki (nM)
Numbers only, in nM.

Past entries and their recorded results:
compound	Ki, nM
CCNC(=O)c1cc2c(-c3ccc(C(=O)N(CCCN4CCOCC4)Cc4ccccc4)cc3Oc3c(C)cccc3C)cn(C)c(=O)c2[nH]1 [Example 161]	1050
Cn1cc(-c2cc(S(C)(=O)=O)ccc2Oc2cccc(C(=O)NCc3cc(F)cc(F)c3)c2)c2cc[nH]c2c1=O [Example 36]	14

For each entry beneath this line, provide reported Ki.
1. Cn1cc(-c2cc(S(C)(=O)=O)ccc2Oc2ccc(F)cc2F)c2cc(CN3CCN(C4CC4)CC3)[nH]c2c1=O [Example 115]
2. Cn1cc(-c2cc(S(C)(=O)=O)ccc2Oc2cccc(NS(=O)(=O)C3CC3)c2)c2cc[nH]c2c1=O [Example 49]
3. CCS(=O)(=O)Nc1cc(-c2cn(C)c(=O)c3[nH]ccc23)c(Oc2ccc(F)cc2F)cc1CN1CCN(C)CC1 [Example 5]
4. CCNC(=O)c1cc2c(-c3ccc(C(=O)N(CCC(=O)OC)c4ccccc4)cc3Oc3c(C)cccc3C)cn(C)c(=O)c2[nH]1 [Example 160]
5. CCNC(=O)c1cc2c(-c3ccc(C(=O)N(CCC#N)C4CCCCC4)cc3Oc3c(C)cccc3C)cn(C)c(=O)c2[nH]1 [Example 176]
6. CCS(=O)(=O)c1ccc(Oc2ccc(F)cc2F)c(-c2cn(C)c(=O)c3[nH]c(-c4cccnc4N4CCOCC4)cc23)c1 [Example 118]
7. CN(C)CCCOc1ccc(CNc2cccc(Oc3ccc(S(C)(=O)=O)cc3-c3cn(C)c(=O)c4[nH]ccc34)c2)cc1 [Example 74]
8. Cn1cc(-c2cc(S(C)(=O)=O)ccc2Oc2ccc(F)cc2F)c2cc(CN3CC(n4cncn4)C3)[nH]c2c1=O [Example 156]

1: 5.22; 2: 4.4; 3: 16; 4: 1710; 5: 927; 6: 99.2; 7: 4.3; 8: 26.8

* * *

biological target: BRD4 (BDII_E352-M457) (Homo sapiens (Human), UniProt O60885); experiment: TR-FRET bromodomain binding assay, BRD4 second bromodomain; conditions: His-tagged BD2, Alexa647-labeled probe 30 nM
In this scheme, each record receives a class according to its Ki; the ranges are LOW (below 7 nM), MID (7 nM to below 30 nM), HIGH (30 nM or more)

Use the examples below as a reference point.
compound	systemTested	group
CCNC(=O)c1cc2c(-c3ccc(C(=O)N(CC#N)CC(C)c4ccccc4)cc3Oc3c(C)cccc3C)cn(C)c(=O)c2[nH]1 (stereo not shown)	BRD4 (BDII_E352-M457) (Homo sapiens (Human), UniProt O60885)	HIGH
Cn1cc(-c2cc(S(C)(=O)=O)ccc2Oc2ccc(F)cc2F)c2cc(CN3CC(n4cncn4)C3)[nH]c2c1=O	BRD4 (BDII_E352-M457) (Homo sapiens (Human), UniProt O60885)	HIGH
CSCCCN1CCC(Nc2ccc(S(C)(=O)=O)cc2-c2cn(C)c(=O)c3[nH]ccc23)CC1	BRD4 (BDII_E352-M457) (Homo sapiens (Human), UniProt O60885)	HIGH
CCS(=O)(=O)c1ccc(OCC2CC2(F)F)c(-c2cn(C)c(=O)c3[nH]c(CN4CCN(c5nccs5)CC4)cc23)c1 (stereo not shown)	BRD4 (BDII_E352-M457) (Homo sapiens (Human), UniProt O60885)	HIGH
CCNC(=O)c1cc2c(-c3cc(S(=O)(=O)CC)ccc3Oc3c(C)cccc3CN3CCCC3=O)cn(C)c(=O)c2[nH]1	BRD4 (BDII_E352-M457) (Homo sapiens (Human), UniProt O60885)	MID
CCS(=O)(=O)Nc1cc(-c2cn(C)c(=O)c3[nH]ccc23)c(Oc2ccc(F)cc2F)cc1CN1CCOCC1	BRD4 (BDII_E352-M457) (Homo sapiens (Human), UniProt O60885)	LOW

Which class is correct for the following compound? CN(C)c1cccc(CNc2cccc(Oc3ccc(S(C)(=O)=O)cc3-c3cn(C)c(=O)c4[nH]ccc34)c2)c1 LOW

Which class is correct for the following compound? CCNC(=O)c1cc2c(-c3ccc(C(=O)N(CC#N)c4ccc(Cl)cc4)cc3Oc3c(C)cccc3C)cn(C)c(=O)c2[nH]1 MID

Which class is correct for the following compound? Cn1cc(-c2cc(S(C)(=O)=O)ccc2Oc2cccc(NCC3CCOC3)c2)c2cc[nH]c2c1=O (stereo not shown) LOW

Which class is correct for the following compound? COc1ccc(S(=O)(=O)Nc2cccc(Oc3ccc(S(C)(=O)=O)cc3-c3cn(C)c(=O)c4[nH]ccc34)c2)cc1 LOW

Which class is correct for the following compound? Cn1cc(-c2cc(S(C)(=O)=O)ccc2NC2CCN(S(=O)(=O)c3cccs3)CC2)c2cc[nH]c2c1=O LOW

Which class is correct for the following compound? COC1CCC(C(=O)N2CCC(Nc3ccc(S(C)(=O)=O)cc3-c3cn(C)c(=O)c4[nH]ccc34)CC2)CC1 (stereo not shown) MID

Which class is correct for the following compound? CCNC(=O)c1cc2c(-c3cc(S(=O)(=O)CC)ccc3Oc3c(C)cccc3CN3CCCCC3)cn(C)c(=O)c2[nH]1 HIGH

Which class is correct for the following compound? CCNC(=O)c1cc2c(-c3ccc(C(=O)N(CCC(=O)OC)c4ccccc4)cc3Oc3c(C)cccc3C)cn(C)c(=O)c2[nH]1 MID

* * *

target: BRD4 (BDI_K57-E168) (Homo sapiens (Human)); assay: TR-FRET bromodomain binding assay, BRD4 first bromodomain; conditions: His-tagged BD1, Alexa647-labeled probe 100 nM
readoutType: pKi
Answers are plain numbers, as −log10 of the molar value.

For each entry beneath this line, provide reported pKi.
1. Cn1cc(-c2cc(S(C)(=O)=O)ccc2NC2CCN(S(=O)(=O)Cc3ccccc3)CC2)c2cc[nH]c2c1=O [Example 101]
2. CCNC(=O)c1cc2c(-c3ccc(C(=O)N(CC#N)c4ccc(OC)cc4)cc3Oc3c(C)cccc3C)cn(C)c(=O)c2[nH]1 [Example 183]

[8.22, 5.55]

For each entry beneath this line, provide reported pKi.
1. Cn1cc(-c2cc(S(C)(=O)=O)ccc2Oc2cccc(NCC3CCOC3)c2)c2cc[nH]c2c1=O (stereo not drawn) [Example 77]
2. CCNC(=O)c1cc2c(-c3ccc(C(=O)N(CCC#N)c4cccc(Cl)c4)cc3Oc3c(C)cccc3C)cn(C)c(=O)c2[nH]1 [Example 175]
3. CCNC(=O)c1cc2c(-c3ccc(C(=O)N(CCN(CC)CC)c4ccccc4C)cc3Oc3c(C)cccc3C)cn(C)c(=O)c2[nH]1 [Example 170]
4. CN(CC#N)C(=O)c1cccc(Oc2ccc(S(C)(=O)=O)cc2-c2cn(C)c(=O)c3[nH]ccc23)c1 [Example 32]
5. Cn1cc(-c2cc(S(C)(=O)=O)ccc2Oc2cccc(NS(=O)(=O)c3ccc(C#N)cc3)c2)c2cc[nH]c2c1=O [Example 56]
6. Cn1cc(-c2cc(S(C)(=O)=O)ccc2Oc2cccc(C(=O)NCCN3CCCC3)c2)c2cc[nH]c2c1=O [Example 35]
7. CCS(=O)(=O)Nc1cc(-c2cn(C)c(=O)c3[nH]ccc23)c(Oc2ccc(F)cc2F)cc1CN(C)C [Example 2]

1. 7.96
2. 5.65
3. 6.06
4. 7.68
5. 8.06
6. 8.51
7. 7.24

For each entry beneath this line, provide reported pKi.
1. Cc1ccc(CNc2cccc(Oc3ccc(S(C)(=O)=O)cc3-c3cn(C)c(=O)c4[nH]ccc34)c2)c(C)c1 [Example 70]
2. Cn1cc(-c2cc(S(C)(=O)=O)ccc2Oc2ccc(F)cc2F)c2cc(CN3CCN(c4nccs4)CC3)[nH]c2c1=O [Example 114]
3. Cn1cc(-c2cc(S(C)(=O)=O)ccc2Oc2cccc(NS(=O)(=O)c3ccc(F)cc3Cl)c2)c2cc[nH]c2c1=O [Example 58]
4. Cn1cc(-c2cc(S(C)(=O)=O)ccc2NC2CCN(S(=O)(=O)c3cccc(C#N)c3)CC2)c2cc[nH]c2c1=O [Example 105]
5. Cn1cc(-c2cc(S(C)(=O)=O)ccc2Oc2ccc(F)cc2F)c2cc(CN3CCC(N4CCOCC4)CC3)[nH]c2c1=O [Example 130]
6. CCNC(=O)c1cc2c(-c3ccc(C(=O)N(CCN(C)C)c4ccccc4)cc3Oc3c(C)cccc3C)cn(C)c(=O)c2[nH]1 [Example 179]

1: 7.80; 2: 8.16; 3: 8.33; 4: 8.14; 5: 8.00; 6: 5.80

Look up pKi: CCS(=O)(=O)c1ccc(Oc2ccc(F)cc2F)c(-c2cn(C)c(=O)c3[nH]c(-c4ccnn4-c4ccccc4)cc23)c1 [Example 117] 8.22
